Origin of values: PubChem BioAssay AID1159580

test: chemical genetic growth profiling, strain panel (AID 1159580);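 further: tested at 20 µM; growth read once vehicle control cultures reached saturation at 30 °C; 1 = growth at the plate median or of vehicle wells; lower values mean less growth of the strain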; conditions: S. cerevisiae deletion strains, growth OD, locus YNL067W, strain RPL9B, hits give low values
The campaign covered roughly 5,500 compounds. About 2,000 (36%) were called active. Inconclusive results (about 18%) are left out. Some of the results follow.
readout.label: normalized growth
Answer using only a numeral; do not append any unit.

# annotated cases, reported normalized growth shown
>  <molecule>
CC(C)CC(N(C)C)C1(c2ccc(Cl)cc2)CCC1 (centres undefined)

>  <normalized growth>
0.992

$$$$
>  <molecule>
Cc1cn([C@H]2C[C@H](N=[N+]=[N-])[C@@H](CO)O2)c(=O)[nH]c1=O

>  <normalized growth>
1.02

$$$$
>  <molecule>
CC(C)=CCCC1(C)C=Cc2c(O)c3c(c(CC=C(C)C)c2O1)OC12C(CC4CC1C(C)(C)OC2(C/C=C(/C)C(=O)O)C4O)C3=O (centres undefined)

>  <normalized growth>
0.996

$$$$
>  <molecule>
CCC(C)C(NC)C(=O)O (centres undefined)

>  <normalized growth>
1.03

$$$$
>  <molecule>
CC(=O)OC1CC[C@@]2(C)C(CC[C@]3(C)C2CCC2C4CC(C)(C)CCC4(C(=O)O)CC[C@]23C)C1(C)C (some centres undefined)

>  <normalized growth>
0.989

$$$$

Exam item: Which value of normalized growth has been reported for CC1(C)CC[C@]2(C(=O)O)CC[C@]3(C)C(=CCC4[C@@]5(C)CC[C@H](O)[C@@](C)(CO)C5CC[C@]43C)C2C1 (some centres undefined) in the records?
Marked response: 1.04

Exam item: Which value of normalized growth has been reported for OC(CCN1CCCC1)(c1ccccc1)C1CCCCC1 (centres undefined) in the records?
Marked response: 0.998

Exam item: Which value of normalized growth has been reported for `Nc1ccc(S(=O)(=O)Nc2cnc3ccccc3n2)cc1` in the records?
Marked response: 0.977

Exam item: Which value of normalized growth has been reported for CC(C)=CCCC1(C)C=Cc2c(O)c3c(c(CC=C(C)C)c2O1)OC12C(=CC4CC1C(C)(C)OC2(C/C=C(/C)C(=O)O)C4O)C3=O (centres undefined) in the records?
Marked response: 0.985

---

assay: chemical genetic growth profiling, strain panel (AID 1159580); details: S. cerevisiae deletion strains, growth OD, locus YJR016C, strain ILV3, hits give low values
Among all 5,500 compounds or so, about 2,000 (36%) were called active. Not shown: some 18% with an inconclusive outcome. The list shows a part of the results.
The entries below come with measured normalized growth values attached.
Answer using only a numeral; do not append any unit.

>  <compound>
O=C(NCC1COc2ccccc2O1)c1ccc(Cl)cc1 (configuration not stated)

>  <normalized growth>
0.936

$$$$
>  <compound>
O=C(Nc1ccc(Cl)cc1)SCc1c(Cl)cccc1Cl

>  <normalized growth>
0.995

$$$$
>  <compound>
O=C(NCC(c1ccccc1)c1c[nH]c2ccccc12)c1ccc(C(F)(F)F)cc1 (configuration not stated)

>  <normalized growth>
0.99

$$$$
>  <compound>
Clc1ccc2c(c1)c1ccccc1n2CN1CCOCC1

>  <normalized growth>
0.943

$$$$
>  <compound>
Clc1cc(Cl)cc(-c2nc(SCc3ccc(Cl)cc3Cl)n[nH]2)c1

>  <normalized growth>
0.987

$$$$
>  <compound>
OC1CCN(c2cc(C(F)(F)F)nc3cc(Cl)cc(Cl)c23)CC1

>  <normalized growth>
0.984

$$$$

Exam item: Which value of normalized growth has been reported for `O=C(Nc1ccccc1Sc1ccc([N+](=O)[O-])cc1[N+](=O)[O-])C(Cl)(Cl)Cl` in the records?
Marked response: 0.971

Exam item: Which value of normalized growth has been reported for `O=C(NCCNc1ncc(Cl)cc1C(F)(F)F)C(F)(F)Sc1ccccc1` in the records?
Marked response: 0.989

Exam item: Which value of normalized growth has been reported for `S=C(Nc1ccc(Cl)cc1)SCc1c(Cl)cccc1Cl` in the records?
Marked response: 0.973

Exam item: Which value of normalized growth has been reported for `CSc1n[nH]c(-c2cc(C(F)(F)F)cc(C(F)(F)F)c2)n1` in the records?
Marked response: 0.947

Exam item: Which value of normalized growth has been reported for `Cc1csc(NC(=O)Nc2ccc(C(F)(F)F)cc2)c1Cl` in the records?
Marked response: 0.95

Exam item: Which value of normalized growth has been reported for `Fc1cccc(Cl)c1CSc1n[nH]c(-c2cc(C(F)(F)F)cc(C(F)(F)F)c2)n1` in the records?
Marked response: 0.981

---

The entries below come with measured normalized growth values attached.
experiment: chemical genetic growth profiling, strain panel (AID 1159580); details: S. cerevisiae deletion strains, growth OD, locus YOR083W, strain WHI5, hits give low values
The campaign covered roughly 5,500 compounds. About 2,000 (36%) were called active. Not shown: some 18% with an inconclusive outcome. The list shows a part of the results.
Answer using only a numeral; do not append any unit.

Exam item: Which value of normalized growth has been reported for `COc1cccc2c1C(=O)c1c(O)c3c(c(O)c1C2=O)C[C@@](O)(C(C)=O)C[C@@H]3O[C@H]1C[C@H](N)[C@H](O)[C@H](C)O1` in the records?
Marked response: 0.972

Exam item: Which value of normalized growth has been reported for C#C[C@]1(O)CCC2C3CCC4=C(CCC(=O)C4)C3CC[C@@]21C (some centres not stated) in the records?
Marked response: 0.985

---

assay: chemical genetic growth profiling, strain panel (AID 1159580);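 further: tested at 20 µM; growth read once vehicle control cultures reached saturation at 30 °C; 1 = growth at the plate median or of vehicle wells; lower values mean less growth of the strain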; details: S. cerevisiae deletion strains, growth OD, locus YKL085W, strain MDH1
Screen size: about 5,500 compounds; about 2,000 (36%) were called active. About 18% were inconclusive and are not listed. Cut-off read from the data, not from the text of the source: active = normalized growth mostly below about 0.91 (no sharp cut-off); inconclusive = no clear call, values can overlap the other calls; inactive = mostly above about 0.92. This is one part of the list.
// one of yes (1) = active, no (0) = inactive, no free text

Exam item: I'd appreciate the recorded outcome for `Cc1ccnc(NS(=O)(=O)c2ccc(N)cc2)n1` from this test.
Marked response: no (0)

Exam item: I'd appreciate the recorded outcome for C[C@@H]1OC(O[C@H]2[C@H](OC(=O)[C@]34CCC(C)(C)CC3C3=CCC5[C@@]6(C)CC[C@H](OC7O[C@@H](C)[C@H](O[C@@H]8OC[C@@H](O)[C@H](O)[C@H]8O)[C@@H](O)[C@H]7O)C(C)(C)C6CC[C@@]5(C)[C@]3(C)CC4O)OC[C@H](O)[C@H]2O)[C@H](O)[C@H](O)[C@H]1O[C@@H]1O[C@H](CO)[C@@H](O)[C@H](O)[C@H]1O (stereo partly drawn) from this test.
Marked response: yes (1)

---

assay: chemical genetic growth profiling, strain panel (AID 1159580);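 further: tested at 20 µM; growth read once vehicle control cultures reached saturation at 30 °C; 1 = growth at the plate median or of vehicle wells; lower values mean less growth of the strain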; conditions: S. cerevisiae deletion strains, growth OD, locus YJR075W, strain HOC1, hits give low values
The campaign covered roughly 5,500 compounds. About 2,000 (36%) were called active. Another 18% or so got no clear call; they are omitted. Some of the results follow.
readout.label: normalized growth
Answer using only a numeral; do not append any unit.

>  <molecule>
CC(=O)NC(C(=O)O)C(C)(C)SN=O (stereo unspecified)

>  <result>
1.03

$$$$
>  <molecule>
O=C(NC1CCN(Cc2ccc(Cl)c(Cl)c2)CC1)c1ccccc1

>  <result>
1.02

$$$$
>  <molecule>
COc1cc(N)c(Cl)cc1C(=O)NC1CCN(Cc2ccccc2)CC1

>  <result>
0.978

$$$$

Exam item: Which value of normalized growth has been reported for N#CC(O[C@@H]1O[C@H](CO[C@@H]2O[C@H](CO)[C@@H](O)[C@H](O)[C@H]2O)[C@@H](O)[C@H](O)[C@H]1O)c1ccccc1 (stereo partly specified) in the records?
Marked response: 0.999

Exam item: Which value of normalized growth has been reported for `O=C(O)CSCC(=O)NC1CCN(Cc2ccccc2)CC1` in the records?
Marked response: 1.01

Exam item: Which value of normalized growth has been reported for CCNC(=O)C1OC(n2cnc3c(NCc4ccccc4)ncnc32)C(O)C1O (stereo unspecified) in the records?
Marked response: 1

---

test: chemical genetic growth profiling, strain panel (AID 1159580);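 further: tested at 20 µM; growth read once vehicle control cultures reached saturation at 30 °C; 1 = growth at the plate median or of vehicle wells; lower values mean less growth of the strain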; settings: S. cerevisiae deletion strains, growth OD, locus YDR318W, strain mcm21
Hit rate of the full screen: of about 5,500 compounds, about 2,000 (36%) were called active. Inconclusive results (about 18%) are left out. Rule as the data show it: active = normalized growth mostly below about 0.91 (no sharp cut-off); inconclusive = no clear call, values can overlap the other calls; inactive = mostly above about 0.92. Some of the results follow.
// one of t for active, f for inactive, no free text

Answered examples (5):
>  <compound>
CCOC(=O)OC(C)OC(=O)C1N2C(=O)C(NC(=O)[C@H](N)c3ccccc3)C2SC1(C)C (stereo partly specified)

>  <assigned.label>
f

$$$$
>  <compound>
C#C[C@]1(O)CCC2C3CCC4=CC(=O)CC[C@@H]4C3CC[C@@]21C (stereo partly specified)

>  <assigned.label>
f

$$$$
>  <compound>
C#C[C@]1(OC(C)=O)CCC2C3CCC4=CC(=O)CC[C@@H]4C3CC[C@@]21C (stereo partly specified)

>  <assigned.label>
f

$$$$
>  <compound>
Cc1cc(O)cc(=O)o1

>  <assigned.label>
f

$$$$
>  <compound>
Cc1cc(O)cc(O)c1C(=O)O

>  <assigned.label>
f

$$$$

Turning to the following compound.
Exam item: I'd appreciate the recorded outcome for `N[C@H](C(=O)O)[C@@H]1CC(Cl)=NO1` from this test.
Marked response: t
